# targetOrTestSystem: CDK4/cyclin D1 (Homo sapiens (Human))
# Sequence (P11802 whole entry): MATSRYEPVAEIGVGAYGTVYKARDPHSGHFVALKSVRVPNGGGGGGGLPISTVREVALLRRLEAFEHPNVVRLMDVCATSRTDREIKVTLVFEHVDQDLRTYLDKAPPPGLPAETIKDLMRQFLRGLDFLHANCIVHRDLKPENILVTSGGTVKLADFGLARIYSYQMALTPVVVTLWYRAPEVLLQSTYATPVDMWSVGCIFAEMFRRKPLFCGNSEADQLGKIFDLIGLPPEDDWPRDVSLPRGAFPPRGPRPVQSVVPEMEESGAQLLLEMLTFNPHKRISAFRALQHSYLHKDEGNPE
# Sequence (P24385 whole entry partner): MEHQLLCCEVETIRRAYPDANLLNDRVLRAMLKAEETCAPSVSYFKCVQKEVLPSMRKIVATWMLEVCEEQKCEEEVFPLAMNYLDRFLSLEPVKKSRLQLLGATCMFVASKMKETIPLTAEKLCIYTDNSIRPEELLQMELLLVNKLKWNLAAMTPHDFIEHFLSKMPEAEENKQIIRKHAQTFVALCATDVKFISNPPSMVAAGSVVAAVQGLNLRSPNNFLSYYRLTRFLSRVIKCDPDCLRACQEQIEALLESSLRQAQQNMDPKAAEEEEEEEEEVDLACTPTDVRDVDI
# testDetails: CDK4 Caliper Mobility Shift assay
pIC50: −log10 of the molar value.
Listed next: entries and their corresponding pIC50.

{"compound": "CC(=O)c1c(C)c2cnc(Nc3ccc(N4CCN(S(=O)(=O)NC(=O)OC5CCOCC5)CC4)cn3)nc2n(C2CCCC2)c1=O", "pIC50": "6.30 to 6.70"}
{"compound": "CC(=O)c1c(C)c2cnc(Nc3ccc(N4CCN(S(=O)(=O)NC(=O)C5CCCO5)CC4)cn3)nc2n(C2CCCC2)c1=O (stereo not drawn)", "pIC50": "≥ 6.70"}
{"compound": "CC(=O)c1c(C)c2cnc(Nc3ccc(N4CCN(S(=O)(=O)NC(=O)OCCNC(=O)[C@H](N)C(C)C)C[C@@H]4C)cn3)nc2n(C2CCCC2)c1=O", "pIC50": "≥ 6.70"}
{"compound": "CC(=O)c1c(C)c2cnc(Nc3ccc(N4CCN(S(=O)(=O)N(C)C)CC4)cn3)nc2n(C2CCCC2)c1=O", "pIC50": "6.30 to 6.70"}
{"compound": "CC(=O)c1c(C)c2cnc(Nc3ccc(N4CCN(S(=O)(=O)OCOC(=O)c5ccccc5)CC4)cn3)nc2n(C2CCCC2)c1=O", "pIC50": "≥ 6.70"}
{"compound": "CC(=O)c1c(C)c2cnc(Nc3ccc(N4CCN(S(N)(=O)=O)C[C@@H]4C)cn3)nc2n(C2CCCC2)c1=O", "pIC50": "≥ 6.70"}

====

# System: MCF-7 human breast cancer cells
# testDetails: CELLTITER-GLO luminescent cell viability assay
# Format: cell-based
# protocolConditions: MCF7, 192 h, MCF-7 cells, 8 days, read-out: EC50 (Effect on Cell Viability)
measuredEndpoint: EC50

{"compound": "CC(=O)NCCOC(=O)NS(=O)(=O)N1CCN(c2ccc(Nc3ncc4c(C)c(C(C)=O)c(=O)n(C5CCCC5)c4n3)nc2)CC1", "measuredEndpoint": "EC50", "result": "1 to 10 µM"}
{"compound": "CCC(=O)NS(=O)(=O)N1CCN(c2ccc(Nc3ncc4c(C)c(C(C)=O)c(=O)n(C5CCCC5)c4n3)nc2)CC1", "measuredEndpoint": "EC50", "result": "1 to 10 µM"}
{"compound": "CCNS(=O)(=O)N1CCN(c2ccc(Nc3ncc4c(C)c(C(C)=O)c(=O)n(C5CCCC5)c4n3)nc2)CC1", "measuredEndpoint": "EC50", "result": "1 to 10 µM"}
{"compound": "CC(=O)c1c(C)c2cnc(Nc3ccc(N4CCN(S(=O)(=O)NC(=O)OC(C)C)CC4)cn3)nc2n(C2CCCC2)c1=O", "measuredEndpoint": "EC50", "result": "1 to 10 µM"}
{"compound": "CCCNS(=O)(=O)N1CCN(c2ccc(Nc3ncc4c(C)c(C(C)=O)c(=O)n(C5CCCC5)c4n3)nc2)CC1", "measuredEndpoint": "EC50", "result": "> 10 µM"}
{"compound": "CCOC(=O)NS(=O)(=O)N1CCN(c2ccc(Nc3ncc4c(C)c(C(C)=O)c(=O)n(C5CCCC5)c4n3)nc2)CC1", "measuredEndpoint": "EC50", "result": "1 to 10 µM"}
{"compound": "CC(=O)c1c(C)c2cnc(Nc3ccc(N4CCN(S(=O)(=O)N5CCOCC5)CC4)cn3)nc2n(C2CCCC2)c1=O", "measuredEndpoint": "EC50", "result": "1 to 10 µM"}
{"compound": "CC(=O)c1c(C)c2cnc(Nc3ccc(N4CCN(S(=O)(=O)NC(=O)OC5CCOCC5)CC4)cn3)nc2n(C2CCCC2)c1=O", "measuredEndpoint": "EC50", "result": "> 10 µM"}
{"compound": "COCCNS(=O)(=O)N1CCN(c2ccc(Nc3ncc4c(C)c(C(C)=O)c(=O)n(C5CCCC5)c4n3)nc2)CC1", "measuredEndpoint": "EC50", "result": "1 to 10 µM"}
{"compound": "CC(=O)c1c(C)c2cnc(Nc3ccc(N4CCN(S(=O)(=O)NC(=O)OCCNC(=O)[C@H](N)C(C)C)C[C@@H]4C)cn3)nc2n(C2CCCC2)c1=O", "measuredEndpoint": "EC50", "result": "1 to 10 µM"}
{"compound": "CC(=O)c1c(C)c2cnc(Nc3ccc(N4CCN(S(=O)(=O)NC(=O)OC(C)(C)C)CC4)cn3)nc2n(C2CCCC2)c1=O", "measuredEndpoint": "EC50", "result": "> 10 µM"}
{"compound": "CC(=O)c1c(C)c2cnc(Nc3ccc(N4CCN(S(=O)(=O)NC(=O)OC5CC5)CC4)cn3)nc2n(C2CCCC2)c1=O", "measuredEndpoint": "EC50", "result": "1 to 10 µM"}
{"compound": "CC(=O)c1c(C)c2cnc(Nc3ccc(N4CCN(S(=O)(=O)N[C@H](C(=O)O)C(C)C)CC4)cn3)nc2n(C2CCCC2)c1=O", "measuredEndpoint": "EC50", "result": "1 to 10 µM"}
{"compound": "CC(=O)c1c(C)c2cnc(Nc3ccc(N4CCN(S(=O)(=O)NCC(=O)O)CC4)cn3)nc2n(C2CCCC2)c1=O", "measuredEndpoint": "EC50", "result": "1 to 10 µM"}
{"compound": "COC(=O)NS(=O)(=O)N1CCN(c2ccc(Nc3ncc4c(C)c(C(C)=O)c(=O)n(C5CCCC5)c4n3)nc2)CC1", "measuredEndpoint": "EC50", "result": "1 to 10 µM"}
{"compound": "COCCOC(=O)NS(=O)(=O)N1CCN(c2ccc(Nc3ncc4c(C)c(C(C)=O)c(=O)n(C5CCCC5)c4n3)nc2)CC1", "measuredEndpoint": "EC50", "result": "> 10 µM"}
{"compound": "CC(=O)c1c(C)c2cnc(Nc3ccc(N4CCN(S(=O)(=O)N5CC(O)C5)CC4)cn3)nc2n(C2CCCC2)c1=O", "measuredEndpoint": "EC50", "result": "1 to 10 µM"}
{"compound": "CC(=O)c1c(C)c2cnc(Nc3ccc(N4CCN(S(=O)(=O)NC(=O)C(N)C(C)C)CC4)cn3)nc2n(C2CCCC2)c1=O (centres unmarked)", "measuredEndpoint": "EC50", "result": "≤ 1 µM"}
{"compound": "CC(=O)c1c(C)c2cnc(Nc3ccc(N4CCN(S(=O)(=O)NCCO)CC4)cn3)nc2n(C2CCCC2)c1=O", "measuredEndpoint": "EC50", "result": "1 to 10 µM"}
{"compound": "CC(=O)c1c(C)c2cnc(Nc3ccc(N4CCN(S(=O)(=O)OCOC(=O)c5ccccc5)CC4)cn3)nc2n(C2CCCC2)c1=O", "measuredEndpoint": "EC50", "result": "1 to 10 µM"}
{"compound": "CC(=O)c1c(C)c2cnc(Nc3ccc(N4CCN(S(=O)(=O)NC(=O)OCCO)CC4)cn3)nc2n(C2CCCC2)c1=O", "measuredEndpoint": "EC50", "result": "> 10 µM"}
{"compound": "CC(=O)c1c(C)c2cnc(Nc3ccc(N4CCN(S(=O)(=O)NC(=O)[C@H](C)N)CC4)cn3)nc2n(C2CCCC2)c1=O", "measuredEndpoint": "EC50", "result": "≤ 1 µM"}
{"compound": "CC(=O)c1c(C)c2cnc(Nc3ccc(N4CCN(S(=O)(=O)NC(C)C)CC4)cn3)nc2n(C2CCCC2)c1=O", "measuredEndpoint": "EC50", "result": "1 to 10 µM"}
{"compound": "CC(=O)c1c(C)c2cnc(Nc3ccc(N4CCN(S(=O)(=O)NC(=O)C5CCC5)CC4)cn3)nc2n(C2CCCC2)c1=O", "measuredEndpoint": "EC50", "result": "1 to 10 µM"}
{"compound": "CC(=O)c1c(C)c2cnc(Nc3ccc(N4CCN(S(=O)(=O)NC(=O)C5CCCO5)CC4)cn3)nc2n(C2CCCC2)c1=O (centres unmarked)", "measuredEndpoint": "EC50", "result": "1 to 10 µM"}
{"compound": "CC(=O)OCCOC(=O)NS(=O)(=O)N1CCN(c2ccc(Nc3ncc4c(C)c(C(C)=O)c(=O)n(C5CCCC5)c4n3)nc2)CC1", "measuredEndpoint": "EC50", "result": "1 to 10 µM"}
